Listing: EC50 of selected compounds
# test_system: UniProtKB P49684
# Sequence (P49684 whole entry): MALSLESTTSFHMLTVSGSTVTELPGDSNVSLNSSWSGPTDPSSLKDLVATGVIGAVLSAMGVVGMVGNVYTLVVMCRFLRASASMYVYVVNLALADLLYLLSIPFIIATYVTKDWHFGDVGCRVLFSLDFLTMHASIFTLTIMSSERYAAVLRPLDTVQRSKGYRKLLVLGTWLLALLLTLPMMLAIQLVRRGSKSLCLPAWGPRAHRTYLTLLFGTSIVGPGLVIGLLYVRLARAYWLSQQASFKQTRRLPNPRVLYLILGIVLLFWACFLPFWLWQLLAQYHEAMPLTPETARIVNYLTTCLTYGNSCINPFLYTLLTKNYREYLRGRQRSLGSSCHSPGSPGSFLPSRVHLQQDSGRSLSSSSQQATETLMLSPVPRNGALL
# measurement_protocol: Agonist activity at UT receptor in rat aorta assessed as contraction
Peptide text beside a SMILES is read from it.

{"compound": "CC(C)[C@H](NC(=O)[C@@H]1CSSC(C)(C)[C@H](NC(=O)[C@@H](N)CC(=O)O)C(=O)N[C@@H](Cc2ccccc2)C(=O)N[C@@H](Cc2c[nH]c3ccccc23)C(=O)N[C@@H](CCCCN)C(=O)N[C@@H](Cc2ccc(O)cc2)C(=O)N1)C(=O)O (HELM PEPTIDE1{D.[Pen].F.W.K.Y.C.V}$PEPTIDE1,PEPTIDE1,2:R3-7:R3$$$V2.0)", "EC50 (nM)": 0.398}
{"compound": "CC(C)[C@H](NC(=O)[C@@H]1CSSC[C@H](NC(=O)[C@H](CC(=O)O)NC(=O)[C@@H]2CCCN2C(=O)[C@@H](NC(=O)[C@@H](N)CCC(=O)O)[C@@H](C)O)C(=O)N[C@@H](Cc2ccccc2)C(=O)N[C@@H](Cc2c[nH]c3ccccc23)C(=O)N[C@@H](CCCCN)C(=O)N[C@@H](Cc2ccc(O)cc2)C(=O)N1)C(=O)O", "EC50 (nM)": 3.16}
{"compound": "CC(C)[C@H](NC(=O)[C@@H]1CSSC(C)(C)[C@H](NC(=O)[C@@H](N)CC(=O)O)C(=O)N[C@@H](Cc2ccccc2)C(=O)N[C@H](Cc2c[nH]c3ccccc23)C(=O)N[C@@H](CCCN)C(=O)N[C@@H](Cc2ccc(Cl)c(Cl)c2)C(=O)N1)C(=O)O", "EC50 (nM)": 12.9}
